Test system: Saccharomyces cerevisiae BY4741 SeMeCo community
Experiment: z-score of subpopulation abundance vs DMSO median, subpopulation auxotrophic for L; higher = larger share of this subpopulation than in DMSO controls
Details: 10 µM; 24 h; SM minimal medium; subpopulation (auxotrophy): L
Answer each item with its documented z-score of subpopulation abundance.
Write the value as a bare number.

Measured z-score of subpopulation abundance of CC1(C)S[C@@H]2[C@H](NC(=O)C(C(=O)O)c3ccccc3)C(=O)N2[C@H]1C(=O)O (some centres undefined) [Carbenicillin disodium] : -0.23

z-score of subpopulation abundance recorded for this compound, NC(=O)[C@@H]1CC[C@@H]2CN1C(=O)N2OS(=O)(=O)O [Avibactam sodium] , is 0.6

Entry O=C(O)C[C@H](O)C[C@H](O)/C=C/c1c(C2CC2)nc2ccccc2c1-c1ccc(F)cc1 — recorded z-score of subpopulation abundance = 0.86

Summary for this compound, CC(=O)Oc1ccccc1C(=O)O : z-score of subpopulation abundance is -0.15
